Target: T1, hFc-hROR1 (extracellular domain of human ROR1 fused to the Fc domain of human IgG1) (human, UniProt Q01973 30-406)
T1 construct: extracellular domain; also called hFc-ROR1; not shown: Fc domain of human IgG1
T1 sequence (Q01973 30-406): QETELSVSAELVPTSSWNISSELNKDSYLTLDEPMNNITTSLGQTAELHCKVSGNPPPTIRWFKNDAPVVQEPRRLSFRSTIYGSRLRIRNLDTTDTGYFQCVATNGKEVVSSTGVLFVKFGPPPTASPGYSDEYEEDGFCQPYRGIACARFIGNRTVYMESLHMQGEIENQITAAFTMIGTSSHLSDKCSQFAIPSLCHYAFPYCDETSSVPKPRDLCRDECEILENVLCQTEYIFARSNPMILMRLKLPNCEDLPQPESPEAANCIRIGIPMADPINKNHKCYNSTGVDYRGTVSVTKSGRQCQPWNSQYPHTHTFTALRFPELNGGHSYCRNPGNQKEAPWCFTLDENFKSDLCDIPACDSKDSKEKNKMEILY
Assay: SPR (Biacore X100); hFc-hROR1 captured by anti-human Fcγ antibody on CM5; Fab as analyte; 1:1 Langmuir fit
Entries and their kon
Parameter measured: kon (M⁻¹ s⁻¹)

binder="ERR1-TOP22 chimeric rabbit/human Fab (Fab, V domains shown, Chimeric rabbit/human Fab with His tag, expressed in E. coli (pET11a); lambda light chain) VH: QSLEESGGRLVTPGTPLTLTCTVSGFSLSSYYMSWVRQAPGKGLEWIGTISSSGSTYYASWVKGRFTISKTSTTVDLKMTSLTTEDTATYFCARDLDYDMDLWGPGTLVTVSS VL: SYELTQLPSVSVSLGQTARITCGGNSIGSKAVHWYQQKPGLAPGLLIYNDDERPSGVPDRFSGSNSGDTATLTISGAQAGDEADYYCQLWDNNAAVFGGGTQLTVTG" parameter_measured=kon unit_descriptor="M⁻¹ s⁻¹" quantitative_readout=737000
binder="ERR1-TOP43 chimeric rabbit/human Fab (Fab, V domains shown, Chimeric rabbit/human Fab with His tag, expressed in E. coli (pET11a); lambda light chain) VH: QSLEESGGRLVTPGTPLTLTCTVSGFSLSSYWMSWVRQAPGKGLEWIGAIYGSGNTYYASWAKGRFTISKTSTTVDLKITSPTTEDTATYFCARDVHSTATDLWGPGTLVTISS VL: SYELTQLPSVSVSLGQTARITCGGNNIGSKAVNWYQQKPGLAPGLLIYNDDERPSGVPDRFSGSNSGDTATLTISGAQAGDEADYYCQLWDSSAGAYVFGGGTQLTVTG" parameter_measured=kon unit_descriptor="M⁻¹ s⁻¹" quantitative_readout=451000
binder="XBR1-402 chimeric rabbit/human Fab (Fab, V domains shown, Chimeric rabbit/human Fab with His tag, expressed in E. coli (pC3C-His); lambda light chain) VH: QEQQKESGGGLFKPTDTLTLTCTASGFDISSYYMSWVRQAPGNGLEWIGAIGISGNAYYASWAKSRSTITRNTNLNTVTLKMTSLTAADTATYFCARDHPTYGMDLWGPGTLVTVSS VL: SYELTQLPSVSVSLGQTARITCEGNNIGSKAVHWYQQKPGLAPGLLIYDDDERPSGVPDRFSGSNSGDTATLTISGAQAGDEADYYCQVWDSSAYVFGGGTQLTVTG" parameter_measured=kon unit_descriptor="M⁻¹ s⁻¹" quantitative_readout=1.11e+06
binder="ERR1-316 chimeric rabbit/human Fab (Fab, V domains shown, Chimeric rabbit/human Fab with His tag, expressed in E. coli (pET11a); lambda light chain) VH: QEQLEESGGRLVTPGTPLTLTCTASGFFLSSYYVSWVRQAPGKGLEWIGAIGTGGSAYYASWAKSRSTITRNTNLSTVTLKMTSLTAADTATYFCARDHPNYGMDLWGPGTLVTVSS VL: SYELTQLPSVSVSLGQTARITCGGNSIGSKAVNWYQQKPGLAPGLLIYDDDERPSGVPDRFSGSNSGDTATLTISGAQAGDEADYYCQLWDSSTGAYAFGGGTQLTVTG" parameter_measured=kon unit_descriptor="M⁻¹ s⁻¹" quantitative_readout=1.1e+06
binder="ERR1-TOP15 chimeric rabbit/human Fab (Fab, V domains shown, Chimeric rabbit/human Fab with His tag, expressed in E. coli (pET11a); lambda light chain) VH: QEQLVESGGRLVTPGGSLTLTCAASGFSPSSYWMSWVRQAPGKGLEWIGAIYVDSGSAYYASWAKSRFTISKTSSTTVDLKMTSLTTEDTAIYFCARDGWGSDVWGPGTLVTISS VL: SYELTQLPSVSVSLGQTARITCGGNSIGSKAVHWYQQKPGLAPGLLIYDDDERPSGVPDRFSGSNSGDTATLTISGAQAGDEADYYCQLWDSSAGAYVFGGGTQLTVTG" parameter_measured=kon unit_descriptor="M⁻¹ s⁻¹" quantitative_readout=469000
